Measured On: human activated protein C (human, UniProt P04070 43-197; P04070 212-461)
Procedure Summary: cell-based or functional assay
Quantity Kind: Mean clotting time (s), FVIII-deficient plasma, APC-antibody concentration 1 ug/ml

Binder	Data Value
HAPC-14-3 (antibody, V domains shown, Whole IgG, backbone hIgG1; also called HPAC 14-3; No. 3) VH: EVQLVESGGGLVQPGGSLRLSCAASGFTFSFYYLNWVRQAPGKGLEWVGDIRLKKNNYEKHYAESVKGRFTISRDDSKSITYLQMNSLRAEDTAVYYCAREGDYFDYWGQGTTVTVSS VL: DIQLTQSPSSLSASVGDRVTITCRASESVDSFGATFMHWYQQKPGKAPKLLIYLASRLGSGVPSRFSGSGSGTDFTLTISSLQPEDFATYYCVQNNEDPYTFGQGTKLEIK	188
HAPC-14-7 (antibody, V domains shown, Whole IgG, backbone hIgG1; also called HPAC 14-7) VH: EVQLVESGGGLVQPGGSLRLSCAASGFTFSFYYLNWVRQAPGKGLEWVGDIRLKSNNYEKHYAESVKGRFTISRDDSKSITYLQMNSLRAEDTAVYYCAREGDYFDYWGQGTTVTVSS VL: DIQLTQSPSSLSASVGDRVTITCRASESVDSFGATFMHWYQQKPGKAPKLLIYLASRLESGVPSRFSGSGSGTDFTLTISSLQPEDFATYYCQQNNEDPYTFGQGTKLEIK	198
